Examples of compounds with documented H1N1 titer Log fold reduction (10 μM) follow.
Tested on: influenza A virus strain A/California/4/2009 (pdmH1N1)
Conditions: virus strain A/California/4/2009 (pdmH1N1, 72 h, 10 μM)

Prompt line: Complete the entry with H1N1 titer Log fold reduction (10 μM) for CC(=O)NCC(=O)N[C@@H](CCC(N)=O)C(=O)N[C@@H](Cc1ccccc1)C(=O)N[C@@H](CCCNC(=N)N)C(=O)c1nc2ccccc2s1
Response line: 4.3

Prompt line: State its H1N1 titer Log fold reduction (10 μM) for this compound: CC[C@H](C)[C@H](NC(C)=O)C(=O)N[C@@H](CO)C(=O)N[C@@H](Cc1ccccc1)C(=O)N[C@@H](CCCNC(=N)N)C(=O)c1nc2ccccc2s1
Response line: 3.4

Prompt line: Indicate its recorded H1N1 titer Log fold reduction (10 μM); the compound in question is CC[C@H](C)[C@H](NC(C)=O)C(=O)N[C@H](Cc1c[nH]c2ccccc12)C(=O)N[C@@H](Cc1ccccc1)C(=O)N[C@@H](CCCNC(=N)N)C(=O)c1nc2ccccc2s1
Response line: 3.0

Prompt line: Please look at this compound and report its H1N1 titer Log fold reduction (10 μM): N=C(N)NCCC[C@H](NC(=O)[C@H](Cc1ccccc1)NC(=O)[C@H](CCC(N)=O)NS(=O)(=O)c1ccccc1)C(=O)c1nc2ccccc2s1
Response line: 3.3

Prompt line: Supply measured H1N1 titer Log fold reduction (10 μM) of CC[C@H](C)[C@H](NC(C)=O)C(=O)N[C@@H](CCC(N)=O)C(=O)N[C@@H](C)C(=O)N[C@@H](CCCNC(=N)N)C(=O)c1nc2ccccc2s1 in your reply.
Response line: 2.4
